Target: Inadl_6, Q8NI35
Sequence (Q8NI35 1058-1167): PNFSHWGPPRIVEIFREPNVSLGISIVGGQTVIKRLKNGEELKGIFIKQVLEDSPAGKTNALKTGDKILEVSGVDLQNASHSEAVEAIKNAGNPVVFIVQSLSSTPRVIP
Experiment: holdup assay
Design: key: below the threshold = too weak to quantify, mostly under pKd 3.1 to 4
Details: plain residues with an end cap or a label only (N-terminal biotin on a linker: ttds)
PROPERTY NAME: pKd

Example binders with recorded pKd:
{"BINDER": "VLRLQSETSV [VANGL1, Q8TAA9]", "pKd": "below the threshold"}
{"BINDER": "SSRTRRETQL [HPV16-E6, P03126]", "pKd": 3.49}
{"BINDER": "IYVPEAQTRL [DLGAP4, Q9Y2H0]", "pKd": "below the threshold"}
{"BINDER": "STLTIFETAL [ABCC4, O15439]", "pKd": 4.89}

Turning now to a further record.
Would you kindly share the measured pKd for TVASEKESVM [SLC1A5, Q15758] ? below the threshold

Cited source for all entries: paper PMC9482650
